The reported numbers originate from patent US20260209347A1.

Answer each item with its documented Maximum MFI.
SYSTEM TESTED: T1, human NKG2A/CD94 on cells (CHOK1-hNKG2A/CD94) (human, UniProt P26715 1-233; Q13241 1-179)
T1 construct: whole, on cells; the killing assays (functional rows) used NK92 cells or primary human NK cells that carry the receptor; also called human NKG2A overexpressing cells; human NKG2A overexpressing cell line
T1 sequence (P26715 whole entry, chain 1 of 2): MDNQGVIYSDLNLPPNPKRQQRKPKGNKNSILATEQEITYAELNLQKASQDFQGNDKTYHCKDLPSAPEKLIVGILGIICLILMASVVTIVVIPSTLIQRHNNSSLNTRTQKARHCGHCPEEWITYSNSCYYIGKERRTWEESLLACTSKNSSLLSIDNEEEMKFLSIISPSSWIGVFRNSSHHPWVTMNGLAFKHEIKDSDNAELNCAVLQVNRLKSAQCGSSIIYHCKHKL
T1 sequence (Q13241 whole entry, chain 2 of 2): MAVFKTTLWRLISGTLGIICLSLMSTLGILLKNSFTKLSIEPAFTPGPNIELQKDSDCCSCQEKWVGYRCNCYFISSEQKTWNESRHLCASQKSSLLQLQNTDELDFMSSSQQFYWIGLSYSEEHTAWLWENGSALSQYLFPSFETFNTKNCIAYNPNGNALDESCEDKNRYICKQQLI
ASSAY PROCEDURE: FACS on human NKG2A overexpressing cell line
Express the result in MFI but write the number alone.

Give its Maximum MFI value. Item: hu-52VH-13/VL-31 (antibody, human IgG4 S228P, kappa, V domains shown, full-length humanized antibody; also called hu-52 humanized antibody) VH: QVQLVQSGAEVKKPGASVKVSCKASGFNIQNTYLHWVRQAPGQGLEWMGRIDPANDNIKYVPKFQGRVTMTADTSTNTAYMELSSLRSEDTAVYYCTRHGLFYEGWFAYWGQGTLVTVSS VL: EIVLTQSPATLSLSPGERATLSCSVSSSISSSNLHWYQQKPGQAPRPLIYGTSNLASGIPARFSGSGSGTDYTLTISSLEPEDAAVYYCQQWSSYPYTFGQGTKLEIKR
18800

Give its Maximum MFI value. Item: hu-52VH-23/VL-21 (antibody, human IgG4 S228P, kappa, V domains shown, full-length humanized antibody; also called hu-52 humanized antibody) VH: QVQLVQSGAEVKKPGASVKVSCKASGFNIQNTYLHWVRQAPGQGLEWMGRIDPANDNIKYVPKFQGRVTMTADTSINTAYMELSRLRSDDTAVYYCTRHGLFYEGWFAYWGQGTLVTVSS VL: DIQLTQSPSTLSASVGDRVTITCSVSSSISSSNLHWYQQKPGKAPKPLIYGTSNLASGVPSRFSGSGSGTEYTLTISSLQPDDAATYYCQQWSSYPYTFGQGTKLEIKR
18000

Give its Maximum MFI value. Item: hu-52VH-23/VL-31 (antibody, human IgG4 S228P, kappa, V domains shown, full-length humanized antibody; also called hu-52 humanized antibody) VH: QVQLVQSGAEVKKPGASVKVSCKASGFNIQNTYLHWVRQAPGQGLEWMGRIDPANDNIKYVPKFQGRVTMTADTSINTAYMELSRLRSDDTAVYYCTRHGLFYEGWFAYWGQGTLVTVSS VL: EIVLTQSPATLSLSPGERATLSCSVSSSISSSNLHWYQQKPGQAPRPLIYGTSNLASGIPARFSGSGSGTDYTLTISSLEPEDAAVYYCQQWSSYPYTFGQGTKLEIKR
18100

Give its Maximum MFI value. Item: hu-52VH-23/VL-11 (antibody, human IgG4 S228P, kappa, V domains shown, full-length humanized antibody; also called hu-52 humanized antibody) VH: QVQLVQSGAEVKKPGASVKVSCKASGFNIQNTYLHWVRQAPGQGLEWMGRIDPANDNIKYVPKFQGRVTMTADTSINTAYMELSRLRSDDTAVYYCTRHGLFYEGWFAYWGQGTLVTVSS VL: DIQLTQSPSSLSASVGDRVTITCSVSSSISSSNLHWYQQKPGKAPKPLIYGTSNLASGVPSRFSGSGSGTDYTLTISSLQPEDAATYYCQQWSSYPYTFGQGTKLEIKR
18700

Give its Maximum MFI value. Item: hu-52VH-13/VL-11 (antibody, human IgG4 S228P, kappa, V domains shown, full-length humanized antibody; also called hu-52 humanized antibody) VH: QVQLVQSGAEVKKPGASVKVSCKASGFNIQNTYLHWVRQAPGQGLEWMGRIDPANDNIKYVPKFQGRVTMTADTSTNTAYMELSSLRSEDTAVYYCTRHGLFYEGWFAYWGQGTLVTVSS VL: DIQLTQSPSSLSASVGDRVTITCSVSSSISSSNLHWYQQKPGKAPKPLIYGTSNLASGVPSRFSGSGSGTDYTLTISSLQPEDAATYYCQQWSSYPYTFGQGTKLEIKR
18800

Give its Maximum MFI value. Item: hu-52VH-13/VL-21 (antibody, human IgG4 S228P, kappa, V domains shown, full-length humanized antibody; also called hu-52 humanized antibody) VH: QVQLVQSGAEVKKPGASVKVSCKASGFNIQNTYLHWVRQAPGQGLEWMGRIDPANDNIKYVPKFQGRVTMTADTSTNTAYMELSSLRSEDTAVYYCTRHGLFYEGWFAYWGQGTLVTVSS VL: DIQLTQSPSTLSASVGDRVTITCSVSSSISSSNLHWYQQKPGKAPKPLIYGTSNLASGVPSRFSGSGSGTEYTLTISSLQPDDAATYYCQQWSSYPYTFGQGTKLEIKR
18900

Give its Maximum MFI value. Item: cAb-52 (antibody, human IgG4 S228P, kappa, V domains shown, human-mouse chimeric antibody, human IgG4 constant region; also called antibody number 52; NKG2A chimeric antibody) VH: EVQLQQSVAELVRPGASVKLSCTASGFNIQNTYLHWVKQRPEQGLEWIGRIDPANDNIKYVPKFQGKATITADTSSNTAYLQLSSLTSEDTAIYYCTRHGLFYEGWFAYWGQGTLVTVST VL: EIVLTQSPALMAASPGEKVTITCSVSSSISSSNLHWYQQKSGTSPKPWIYGTSNLASGVPVRFSGSGSGTSYSLTISSMEAEDAATYYCQQWSSYPYTFGSGTKLEIKR
18800
